- Test system: Escherichia coli
- Test description: Inhibition of Escherichia coli beta-glucuronidase using para-nitrophenyl-beta-D-glucuronide as substrate at 0.2 mM incubated for 30 min prior to substrate addition measured for 30 min by spectrophotometric analysis
Activity calls are given as the source filed them. The calls are words filed in the database; no cut-off is given here.
Property name: inhibition

{"Given smiles": "COc1cccc(Cc2n[nH]c(=O)n2-c2ccccc2OC)c1", "Property name": "inhibition", "Result": "inactive"}
{"Given smiles": "COc1ccc(Cc2n[nH]c(=O)n2-c2ccccc2OC)cc1", "Property name": "inhibition", "Result": "inactive"}
{"Given smiles": "COc1cccc(Cc2n[nH]c(=O)n2-c2cccc(OC)c2)c1", "Property name": "inhibition", "Result": "inactive"}
{"Given smiles": "O=C(O)[C@@H](O)[C@H]1OC(=O)[C@H](O)[C@H]1O", "Property name": "inhibition", "Result": "86.2%"}

Note to self: inhibition recorded for `COc1cccc(CCC(=O)NNC(=O)Nc2ccccc2OC)c1` was 82.9%

Note to self: inhibition recorded for `COc1cccc(CCc2n[nH]c(=O)n2-c2ccccc2OC)c1` was inactive

Note to self: inhibition recorded for `COc1cccc(CC(=O)NNC(=O)Nc2cccc(OC)c2)c1` was 70.8%

Note to self: inhibition recorded for `COc1ccccc1CCC(=O)NNC(=O)Nc1ccccc1OC` was 77.6%

Note to self: inhibition recorded for `COc1ccc(NC(=O)NNC(=O)CCc2ccccc2OC)cc1` was 87.9%

Note to self: inhibition recorded for `COc1ccccc1CC(=O)NNC(=O)Nc1ccccc1OC` was 88.8%

Note to self: inhibition recorded for `COc1cccc(NC(=O)NNC(=O)CCc2ccccc2OC)c1` was 54.6%

Note to self: inhibition recorded for `COc1ccc(CCc2n[nH]c(=O)n2-c2ccccc2OC)cc1` was inactive

Note to self: inhibition recorded for `COc1ccc(CC(=O)NNC(=O)Nc2ccccc2OC)cc1` was 94.5%

Note to self: inhibition recorded for `COc1ccc(NC(=O)NNC(=O)CCc2cccc(OC)c2)cc1` was 73.3%
